Biological target: GST-tagged recombinant full-length human Pim-2 (Homo sapiens)
Construct: GST-tagged recombinant full-length human Pim-2; GST
Sequence (Q9P1W9 whole entry): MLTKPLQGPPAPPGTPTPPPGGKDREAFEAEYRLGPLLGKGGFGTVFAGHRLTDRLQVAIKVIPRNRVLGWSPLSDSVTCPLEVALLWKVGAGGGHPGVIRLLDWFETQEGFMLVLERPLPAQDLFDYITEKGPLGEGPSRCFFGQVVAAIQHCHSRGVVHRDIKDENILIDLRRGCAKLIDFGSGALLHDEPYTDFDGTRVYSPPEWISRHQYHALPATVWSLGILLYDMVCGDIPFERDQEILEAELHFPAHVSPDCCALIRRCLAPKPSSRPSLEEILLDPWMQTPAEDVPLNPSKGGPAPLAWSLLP
Assay: PIM-2 Assay (as Example A with GST-tagged recombinant full-length human Pim-2)
Conditions: 4 μM ATP, 1.0 μM PIM2tide, 1.5 nM Pim-2; high dose 10 μM
Experimental: The assay for the determination of PIM-1 activity is based on the incorporation of [^33P]PO4 from [γ-^33P]ATP into PIM2tide substrate and capture of the radiolabeled peptide onto a Whatman P81 (phosphocellulose) filter plate. The amount of radiolabeled product is then measured by liquid scintillation counting. […] Fifty μL of liquid scintillation cocktail were then added per well, and the plate was counted for 30 s/well using a TopCount NXT. […]
MEASURED ATTRIBUTE: IC50 (nM)
# output: bare number, implied unit nM

c1cc(N2CCNCC2)c2nc(-c3nnc4ccccn34)ccc2c1 [Example 6] | 2980
OC1CCCN(c2cccc3ccc(-c4nnc5ccccn45)nc23)C1 (stereo not drawn) [Example 20] | 2380
N[C@H]1CCCN(c2cccc3ccc(-c4nnc5ccccn45)nc23)C1 [Example 22] | 3100
NCC1CCN(c2cccc3ccc(-c4nnc5cc(CO)ccn45)nc23)CC1 [Example 11] | 2600
N[C@@H]1CCCN(c2cccc3ccc(-c4nnc5ccccn45)nc23)C1 [Example 21] | 142
NCC1CCN(c2cccc3ccc(-c4nnc5ccccn45)nc23)CC1 [Example 10] | 224
CCNCc1ccn2c(-c3ccc4cccc(N5CCC(CN)CC5)c4n3)nnc2c1 [Example 12] | 92
OCC1CCCN(c2cccc3ccc(-c4nnc5ccccn45)nc23)C1 (stereo not drawn) [Example 15] | 2080
c1cc(N2CCCCC2)c2nc(-c3nnc4ccccn34)ccc2c1 [Example 5] | 2600
CC1(C)CN(c2cccc3ccc(-c4nnc5ccccn45)nc23)CCN1 [Example 23] | 647

Exercise: Test system GST-tagged recombinant full-length human Pim-2 (Homo sapiens); read-out IC50; what value for N[C@@H]1CCN(c2cccc3ccc(-c4nnc5ccccn45)nc23)C[C@@H]1F (relative stereo) [Example 27] ?
Key: 570
